Taken from patent US20200247800A1.

Target: human NOX4 (Homo sapiens)
Construct: expressed in transfected cells; membrane fraction used
Sequence (Q9NPH5 1-578): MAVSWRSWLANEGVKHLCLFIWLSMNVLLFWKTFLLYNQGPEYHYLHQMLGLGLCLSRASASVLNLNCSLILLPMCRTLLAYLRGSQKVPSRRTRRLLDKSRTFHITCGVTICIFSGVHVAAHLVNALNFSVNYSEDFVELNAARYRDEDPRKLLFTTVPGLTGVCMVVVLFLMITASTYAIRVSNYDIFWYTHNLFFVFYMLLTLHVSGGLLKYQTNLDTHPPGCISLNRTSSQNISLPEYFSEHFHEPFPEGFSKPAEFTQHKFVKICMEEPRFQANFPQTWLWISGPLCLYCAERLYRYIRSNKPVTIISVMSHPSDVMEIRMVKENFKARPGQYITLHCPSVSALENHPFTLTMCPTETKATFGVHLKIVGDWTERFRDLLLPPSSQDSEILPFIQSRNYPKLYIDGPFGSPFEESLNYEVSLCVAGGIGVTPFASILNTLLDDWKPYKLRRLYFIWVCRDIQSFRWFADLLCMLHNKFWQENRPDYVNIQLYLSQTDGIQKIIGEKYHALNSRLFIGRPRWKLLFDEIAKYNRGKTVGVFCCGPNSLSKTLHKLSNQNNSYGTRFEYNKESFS
Sequence (P13498 1-195 partner): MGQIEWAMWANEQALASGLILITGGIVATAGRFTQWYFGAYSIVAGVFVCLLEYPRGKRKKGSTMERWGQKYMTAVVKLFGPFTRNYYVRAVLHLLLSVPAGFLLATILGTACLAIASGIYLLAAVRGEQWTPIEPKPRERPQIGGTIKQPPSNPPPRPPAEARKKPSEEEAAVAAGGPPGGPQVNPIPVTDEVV
Experiment: Cell free membrane based in vitro NOX4 assay: H2O2 production by membranes expressing human NOX4, measured with Amplex Red
Assay type: biochemical
Conditions: 1.0 μM compound, read-out: Percentage inhibition at 1.0 μM
PROPERTY MEASURED: inhibition at 1 µM
Answer with the number, then the unit.

Here are 2 compounds together with their reported answers.
[
  {
    "CPD SMILES": "CCc1nn(CCN2CCOCC2)c2[nH]c(-c3ccccc3Cl)c(O)c(=O)c12",
    "VAL": "94%"
  },
  {
    "CPD SMILES": "CC(C)c1c2c(=O)c(O)c(-c3ccccc3Cl)[nH]c2nn1C",
    "VAL": "1.59%"
  }
]

Need inhibition at 1 µM, item Cc1nn(-c2cccc(F)c2)c2[nH]c(-c3c(F)cccc3F)c(O)c(=O)c12
100%

Consider next the compound CCn1nc(C)c2c(=O)c(O)c(-c3c(F)cc(NS(C)(=O)=O)cc3F)[nH]c21 in the same way.
84.8%

Consider next the compound CCn1nc(C)c2c(=O)c(O)c(-c3cc(F)ccc3F)[nH]c21 in the same way.
93.3%

Consider next the compound Cn1ncc2c(=O)c(O)c(-c3c(F)cccc3Cl)[nH]c21 in the same way.
100%
